Recorded Ki values (UniProtKB P18203) are given below.
Sequence (P18203 whole entry): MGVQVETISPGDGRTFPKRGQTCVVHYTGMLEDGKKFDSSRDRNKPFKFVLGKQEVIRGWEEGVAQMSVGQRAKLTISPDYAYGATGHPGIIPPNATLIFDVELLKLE
Entry rule: numbers only, all in µM.

COc1cc(OC)cc(N2C=C3C4CCCC(C(=O)N3CC2=O)N4C(=O)C(=O)c2cc(OC)c(OC)c(OC)c2)c1 (configuration not stated); 0.054

# ---- query compound ----
Could you tell me which Ki is on file for COc1cc2c(c(OC)c1)C1C3CCCC(C(=O)N1CC2)N3C(=O)Nc1ccccc1OC (configuration not stated) ?
0.357

----------
# measured_target: Peptidyl-prolyl cis-trans isomerase FKBP1A (Homo sapiens)
# Sequence (P62942 whole entry): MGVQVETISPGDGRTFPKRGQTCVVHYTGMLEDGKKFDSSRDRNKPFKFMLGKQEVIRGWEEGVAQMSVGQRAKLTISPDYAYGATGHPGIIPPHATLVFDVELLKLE
value_kind: Ki

Could you tell me which Ki is on file for COc1cc2c(c(OC)c1)C1C3CCCC(C(=O)N1CC2)N3C(=O)C(=O)c1cc(Cl)ccc1Cl (stereo unspecified) ?
8.1 µM
